# System Name: Large neutral amino acids transporter small subunit 1 (Homo sapiens)
# Sequence (Q01650 whole entry): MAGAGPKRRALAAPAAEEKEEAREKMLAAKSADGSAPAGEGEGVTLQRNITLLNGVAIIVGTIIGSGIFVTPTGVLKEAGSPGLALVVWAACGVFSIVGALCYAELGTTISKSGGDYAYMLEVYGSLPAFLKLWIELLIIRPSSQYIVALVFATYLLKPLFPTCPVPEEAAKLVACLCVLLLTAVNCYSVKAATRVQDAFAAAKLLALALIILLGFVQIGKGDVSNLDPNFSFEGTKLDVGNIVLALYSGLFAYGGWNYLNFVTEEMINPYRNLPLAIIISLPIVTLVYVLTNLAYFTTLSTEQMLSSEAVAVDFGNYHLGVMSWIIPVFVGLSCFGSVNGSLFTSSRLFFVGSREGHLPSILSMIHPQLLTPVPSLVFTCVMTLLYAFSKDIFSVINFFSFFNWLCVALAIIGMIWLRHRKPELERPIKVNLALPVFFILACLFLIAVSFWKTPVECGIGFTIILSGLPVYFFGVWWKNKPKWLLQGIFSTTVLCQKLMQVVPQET
# Experiment: Substrate activity at human LAT1 expressed in HEK cells assessed as efflux rate of [3H]-gabapentin at 200 uM after 5 to 180 secs by scintillation counting based trans-stimulation assay
# Type: cell-based
# Experimental Parameters: HEK293
Property: Activity (fmol/min)
Just the number please, in fmol/min, no unit attached.

Problem: Which Activity value belongs to CC(C)c1cc(C[C@H](N)C(=O)O)ccc1O ?
Solution: 2.8

Continuing:
Problem: Which Activity value belongs to N[C@@H](Cc1ccccc1)C(=O)O ?
Solution: 3.6

Problem: Repeat for the following compound: N[C@@H](Cc1ccc(O)c(Cc2ccccc2)c1)C(=O)O
Solution: 1.3

Problem: Repeat for the following compound: Cc1cc(C[C@H](N)C(=O)O)ccc1O
Solution: 3.3

Problem: Repeat for the following compound: CCc1cc(C[C@H](N)C(=O)O)ccc1O
Solution: 2.4

Problem: Repeat for the following compound: Cc1ccc(C[C@H](N)C(=O)O)cc1
Solution: 2.7

Problem: Repeat for the following compound: CC(C)(C)c1cccc(C[C@H](N)C(=O)O)c1
Solution: 1.5

Problem: Repeat for the following compound: N[C@@H](Cc1cccc(I)c1)C(=O)O
Solution: 1.9

Problem: Repeat for the following compound: N[C@@H](Cc1cccc(Br)c1)C(=O)O
Solution: 3

These entries and their values trace back to ChEMBL document CHEMBL3808321.
